system: Chordin-like protein 2 (CHRDL2); experiment: compounds binding chordin-like 2 – biochemical, small-molecule microarray, 635 nm fluorescence, primary screen (AID 1126); conditions: fluorescence 635 nm, higher = more signal;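 further: printed compound slides probed with Chrdl2 protein at 4 µg/mL for 1 h at 4 C; score merges 667 nm emission intensity with signal to noise over three replicate slides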
measurement.type: composite z-score
The reply should be a number, written without any unit.

molecule	composite z-score
COC(=O)[C@@]1(Cc2ccc(OC)cc2)[C@H]2c3cc(C(=O)N4CCCC4)n(Cc4ccc(C(F)(F)F)nc4)c3C[C@H]2CN1C(=O)c1ccccc1	-0.249

Below: the item to evaluate.
Please fill in: composite z-score reported for C=CCOC(=O)[C@H]1[C@@H]2C(=O)O[C@@H](c3ccccc3)[C@@H](c3ccccc3)N2[C@@H](c2ccc(OCCOC(=O)[C@H]3C[C@H]4C(=O)N[C@@H](CC(C)C)C(=O)N4[C@H]3c3ccc(O)cc3)cc2)[C@]12C(=O)Nc1ccccc12 = 1.26

----------
Reported composite z-score values for a set of compounds
system: Plasmodium falciparum Sir2 (PF13_0152, Sir2A); assay: Plasmodium falciparum Sir2A binding compounds – biochemical, small-molecule microarray, 635 nm fluorescence, primary screen (AID 1098); conditions: fluorescence 635 nm, higher = more signal;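 further: score merges spot fluorescence intensity with its signal-to-noise ratio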
The reply should be a number, written without any unit.

compound	composite z-score
O=C1O[C@@H](c2ccccc2)[C@@H](c2ccccc2)N2[C@@H](c3ccc(OCCO)cc3)[C@]3(C(=O)Nc4ccc(C#CC5(O)CCCCCC5)cc43)[C@@H](C(=O)Nc3nc4ccccc4s3)[C@H]12	0.943
COc1cc(C(O)C2C=CC3C(=O)N(c4ccccc4)C(=O)C3N2Nc2ccccc2F)cc(OC)c1OC (configuration not stated)	1.41

Please fill in: composite z-score reported for CC(C)C(=C=CC[C@H](O)c1ccccc1OCCO)C[C@H](O)COCc1ccccc1 = 1.63

Please fill in: composite z-score reported for CC1CC/C=C\[C@H]2OC34C=CCN(C(C)(C)C)C(=O)[C@H]3N(CCCO)C(=O)[C@@H]4C2C(=O)O1 (some centres not stated) = 0.28

Please fill in: composite z-score reported for O=C(NCC(O)CO)C1N=C(c2ccc(OCCCO)cc2)N(c2ccccc2)O1 (configuration not stated) = -0.144

Please fill in: composite z-score reported for COC(=O)[C@@]1(Cc2ccc(F)cc2)[C@H]2c3cc(C(=O)N(C)C)n(CCc4ccc(O)c(O)c4)c3C[C@H]2CN1C(=O)c1ccccc1 = 0.681

Please fill in: composite z-score reported for [N-]=[N+]=NCc1ccccc1[C@@H]1OC(c2ccc(OCCCO)cc2)=N[C@]1(Cc1ccccc1N=[N+]=[N-])C(=O)NCC(O)CO (some centres not stated) = 1.29

----------
Reported z-score values for a set of molecules
experiment: plasmodial surface anion channel blockers, osmotic lysis – cell-based, P. falciparum Indochina, OD700, 18 h, primary screen (AID 1157); conditions: P. falciparum Indochina infected erythrocytes, osmotic lysis OD700, 18 h; higher = more signal, called active from +8 up or from −8 down
The reply should be a number, written without any unit.

Reference set (4 entries):
molecule	z-score
[N-]=[N+]=NCc1ccccc1[C@@H]1OC(c2ccc(OCCCO)cc2)=N[C@]1(Cc1ccccc1N=[N+]=[N-])C(=O)NCC(O)CO (stereo partly drawn)	1.1
NC(=O)NCC#Cc1ccc2c(c1)[C@]1(C(=O)N2)[C@H](c2ccc(OCCO)cc2)N2[C@H](c3ccccc3)[C@H](c3ccccc3)OC(=O)[C@H]2[C@@H]1C(=O)O	-1.3
O=C1O[C@@H](c2ccccc2)[C@@H](c2ccccc2)N2[C@@H](c3ccc(OCCO)cc3)[C@]3(C(=O)Nc4ccc(C#CCCO)cc43)[C@@H](C(=O)O)[C@H]12	-0.097
COC(=O)[C@]1(CCC(=O)OC(C)(C)C)N=C(c2ccc(OCCCO)cc2)O[C@@H]1c1ccccc1N=[N+]=[N-]	5.32

Please fill in: z-score reported for CCCCCCc1nc(Cc2cc(OC)c(OC)c(OC)c2)cc2c1[Si](C(C)C)(C(C)C)O[C@H]2c1ccccc1 = -0.23

Please fill in: z-score reported for COc1ccc([Si](C)(C)[C@H]2[C@H](CCO)O[C@@]3(C(=O)N(Cc4ccc(NC(=O)[C@H](C)O)cc4)c4ccccc43)[C@@H]2C)cc1 = 2.46

Please fill in: z-score reported for CN1C(=O)[C@@H]2[C@@H](CC(COc3ccccc3)=C3[C@@H](CCc4ccccc4)OB(O)C[C@@H]32)C1=O = 0.133

Please fill in: z-score reported for CCCCC(O)C1C=CC2C(=O)N(c3ccccc3)C(=O)C2N1Nc1ccc(C#N)cc1 (stereo not drawn) = 1.39

Please fill in: z-score reported for C=C(COC)C(=O)CC[C@@H](OC(=O)c1ccccc1-c1ccccc1C(=O)O)c1ccc(OCCO)cc1 = 0.381

Please fill in: z-score reported for CCN(CC)c1ccc(N2CC=CC34O[C@@H]5C=CCCOC(=O)C5[C@H]3C(=O)N(C(C)CO)[C@@H]4C2=O)cc1 (stereo partly drawn) = 0.353

Please fill in: z-score reported for COCCOC(=O)N1C(=O)[C@@]2(c3cc(C#CCC(C(=O)OC)C(=O)OC)ccc31)[C@H](c1ccc(O)cc1)N1[C@H](c3ccccc3)[C@H](c3ccccc3)OC(=O)[C@H]1[C@@H]2C(=O)Nc1nc2ccccc2s1 = 0.802

Please fill in: z-score reported for COC(=O)C(CC#Cc1ccc2c(c1)[C@]1(C(=O)N2)[C@H](c2ccccc2OCCO)N2[C@H](c3ccccc3)[C@H](c3ccccc3)OC(=O)[C@H]2[C@@H]1C(=O)N1CCc2cc(OC)c(OC)cc2C1)C(=O)OC = 1.25

Please fill in: z-score reported for C=C(CCCC)/C(=C/C[C@H](OC(=O)c1ccncc1)c1cccc(OCCO)c1)c1cnc2ccccc2c1 = 1.26

Please fill in: z-score reported for CC(C)C[C@@H]1NC(=O)[C@@]23C(=O)N[C@@H](Cc4ccccc4)C2[C@H](C)[C@@]2(C)O[C@H]2C3/C=C/C/C=C\CNC(=O)CNC1=O (stereo partly drawn) = 0.329

Please fill in: z-score reported for O=C1N(CCS(=O)(=O)c2ccccc2)c2ccccc2C[C@]12N=C(c1ccc(OCCCO)cc1)O[C@@H]2c1ccccc1 = 2.95

Please fill in: z-score reported for CCC(CC)C(O)C1C=CC2C(=O)N(c3ccccc3)C(=O)C2N1Nc1ccccc1F (stereo not drawn) = 0.584

----------
assay: growth of efflux-deficient E. coli DRC39 – strain DRC39, OD650, 48 h, E. coli filamentation inducers, primary screen (AID 1179);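 further: screen aims at cell division blockers that make cells filament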; details: E. coli DRC39 delta-acrAB growth, higher = more signal, called active from +8 up or from −8 down
So basically every entry gets a class from its z-score, ranges being low group (below 0.02), middle group (0.02 to below 0.6), high group (0.6 or more)

molecule	group.label
CC(C)=CCCC(C)=CC(O)C1C=CC2C(=O)NC(=O)C2N1Nc1ccccn1 (centres undefined)	middle group

Exercise: read the entry C=CC[C@@]12N=C(c3ccc(OCCCO)cc3)O[C@@H]1c1ccccc1N(CCC)C2=O and state which class it falls under. high group

Exercise: read the entry C=CCN1Cc2ccccc2[C@H]2OC(c3ccc(OCCCO)cc3)=N[C@@]2(CCS(=O)(=O)c2ccccc2)C1=O and state which class it falls under. low group

Exercise: read the entry O=C1N(CCS(=O)(=O)c2ccccc2)c2ccccc2C[C@]12N=C(c1ccc(OCCCO)cc1)O[C@@H]2c1ccccc1 and state which class it falls under. low group

Exercise: read the entry CC1CC/C=C\[C@H]2OC34C=CCN(c5ccc6ccccc6c5)C(=O)[C@H]3N(C(C)CO)C(=O)[C@@H]4C2C(=O)O1 (some centres undefined) and state which class it falls under. middle group

Exercise: read the entry CC(C)(C)OC(=O)CC[C@]1(C(=O)NCC(O)CO)N=C(c2ccc(OCCCO)cc2)O[C@H]1c1ccccc1N=[N+]=[N-] (some centres undefined) and state which class it falls under. middle group

Exercise: read the entry CC(C)NC(=O)[C@@]1(C)c2ccccc2C(=O)N(Cc2ccccc2)[C@H]1c1ccc(CO)cc1 and state which class it falls under. high group

Exercise: read the entry O=C1c2ccccc2[C@@]2(Cc3ccccc3N(Cc3ccccc3)C2=O)[C@H](c2ccc(CO)cc2)N1Cc1ccccc1Cl and state which class it falls under. high group

Exercise: read the entry COc1ccc(C(=O)Nc2cccc(CN3C(=O)[C@]4(O[C@H](CC(=O)N5Cc6ccccc6C[C@H]5CO)[C@@H]([Si](C)(C)c5ccc(OC)cc5)[C@@H]4C)c4ccccc43)c2)cc1 and state which class it falls under. middle group

Exercise: read the entry COc1ccc([Si](C)(C)[C@H]2[C@H](CC(=O)N3CCC[C@H]3CO)O[C@@]3(C(=O)N(Cc4ccc(N5CCCCC5=O)cc4)c4ccccc43)[C@@H]2C)cc1 and state which class it falls under. low group

Exercise: read the entry O=C1O[C@@H](c2ccccc2)[C@@H](c2ccccc2)N2[C@@H](c3ccc(OCCO)cc3)[C@]3(C(=O)Nc4ccc(C#CCCO)cc43)[C@@H](C(=O)O)[C@H]12 and state which class it falls under. high group

Exercise: read the entry CC1CC/C=C\[C@H]2OC34C=CCN(CCN5CCOCC5)C(=O)[C@H]3N(CCCO)C(=O)[C@@H]4C2C(=O)O1 (some centres undefined) and state which class it falls under. low group

Exercise: read the entry [N-]=[N+]=Nc1ccccc1[C@@H]1OC(c2ccc(OCCCO)cc2)=N[C@]1(CCS(=O)(=O)c1ccccc1)C(=O)NCC(O)CO (some centres undefined) and state which class it falls under. high group

Exercise: read the entry O=C(NCc1ccccc1)[C@@H]1c2ccccc2C(=O)N(Cc2cc(C(F)(F)F)cc(C(F)(F)F)c2)[C@H]1c1ccc(CO)cc1 and state which class it falls under. low group

All values here come from PubChem BioAssay.
